# protocol.description: Plasma protein binding in rat
# Format: ADME, cell-free
# assay.context: read-out: PPB (converted)
recorded.metric: fraction unbound
// no unit string in output, number only

Exam item: I would be grateful if you could share the reported fraction unbound for CC(=O)O.O=S(=O)(c1cccc(CCCCOCCCCCCNC[C@H](O)c2ccc(O)c(CO)c2)c1)C1CCCC1 .
Marked response: 0.02

---

# system.tested: UniProt P13945
# Sequence (P13945 whole entry): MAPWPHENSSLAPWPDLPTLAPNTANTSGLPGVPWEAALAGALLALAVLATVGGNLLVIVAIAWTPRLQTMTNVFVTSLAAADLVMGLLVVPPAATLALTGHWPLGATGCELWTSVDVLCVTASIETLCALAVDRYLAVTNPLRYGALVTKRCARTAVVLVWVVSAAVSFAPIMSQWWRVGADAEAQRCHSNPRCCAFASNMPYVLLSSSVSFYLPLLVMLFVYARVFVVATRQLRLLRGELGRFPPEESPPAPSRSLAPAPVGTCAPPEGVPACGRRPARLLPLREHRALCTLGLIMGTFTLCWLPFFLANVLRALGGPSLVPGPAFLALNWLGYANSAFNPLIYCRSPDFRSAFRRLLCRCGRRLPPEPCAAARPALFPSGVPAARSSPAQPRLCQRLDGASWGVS
# protocol.description: Agonist activity at human beta3 adrenoceptor transfected in CHO cells assessed as cyclic AMP accumulation after 45 mins by fluorescence polarization assay
In this section, each of the molecules is paired with its reported pEC50.
By convention, pEC50 is the negative base-10 log of a molar concentration.

Before answering, review these 5 worked examples.
| compound.structure | system.tested | pEC50 |
| --- | --- | --- |
| CC(=O)O.O=S(=O)(c1cccc(CCCCOCCCCCCNC[C@H](O)c2ccc(O)c(CO)c2)c1)C1CCCC1 | UniProt P13945 | 6.10 |
| CS(=O)(=O)c1ccc(CCCCOCCCCCCNC[C@H](O)c2ccc(O)c(CO)c2)cc1 | UniProt P13945 | 5.40 |
| O=S1(=O)CCCc2ccc(CCCCOCCCCCCNC[C@H](O)c3ccc(O)c(CO)c3)cc21 | UniProt P13945 | 5.60 |
| O=S1(=O)CCc2ccc(CCCCOCCCCCCNC[C@H](O)c3ccc(O)c(CO)c3)cc21 | UniProt P13945 | 5.70 |
| O=S(=O)(c1ccc(CCCCOCCCCCCNC[C@H](O)c2ccc(O)c(CO)c2)cc1)C1CCCC1 | UniProt P13945 | 6.40 |

Exam item: Consider the molecule O=S(=O)(c1cccc(CCCCOCCCCCCNC[C@H](O)c2ccc(O)c(CO)c2)c1)C1CC=CC1 and give its measured pEC50.
Marked response: 6.40

Exam item: Same lookup for O=S(=O)(c1cccc(CCCCOCCCCCCNC[C@H](O)c2ccc(O)c(CO)c2)c1)C1CCCCC1 , please.
Marked response: 6.60

Exam item: What about this molecule? Cc1cc(CCCCOCCCCCCNC[C@H](O)c2ccc(O)c(CO)c2)cc(S(=O)(=O)C2CCCC2)c1
Marked response: 6.50
